Tested on: Hs578T
assay: normalised response (% of control), CellTiter-Glo; higher = more viable cells (100 = DMSO, 0 = benzethonium chloride kill control)
experimentalConditions: incubation time: 72 h
parameter: normalised response (%)
Give the value in % but do not write % after it.

Solved entries:
{"molecule": "Oc1ccc2c(c1)CC[C@H](c1ccccc1)[C@@H]2c1ccc(OCCN2CCCC2)cc1 [Lasofoxifene] (10 nM)", "normalised response (%)": 103}
{"molecule": "Cc1[nH]c2ccccc2c1CCNCc1ccc(/C=C/C(=O)NO)cc1 [Panobinostat] (10 nM)", "normalised response (%)": 88.1}
{"molecule": "C=C1C[C@@H]2[C@H](CC[C@]3(C)C(=O)CC[C@@H]23)[C@@]2(C)C=CC(=O)C=C12 [Exemestane] (100 nM)", "normalised response (%)": 104}

Proceeding to the next molecule to report its normalised response.
Q: // returns reported normalised response for input COc1cc(O)c2c(c1)/C=C/C[C@H](O)[C@H](O)C(=O)/C=C\C[C@H](C)OC2=O [(5Z)-7-Oxozeaenol] (100 nM)
Result: 98.9

###

System: MDA-MB-453
assay: normalised viability (% of control), CellTiter-Blue; higher = more viable cells (about 100 = DMSO control)
experimentalConditions: incubation time: 72 h
Under this convention, criterion met denotes normalised viability strictly below 90% and criterion not met denotes normalised viability at or above 90%.

{"molecule": "c1ccc2c(CCNc3ccc(Nc4ccncc4)cc3)c[nH]c2c1 [Serdemetan] (1000 nM)", "categoryLabel": "criterion met"}
{"molecule": "CN(C)CCOc1ccc(/C(=C(/CCCl)c2ccccc2)c2ccccc2)cc1 [Toremifene] (1000 nM)", "categoryLabel": "criterion not met"}

Pending molecule:
Q: Report whether reported normalised viability is lower than 90% (strictly) for Cc1[nH]c2ccccc2c1CCNCc1ccc(/C=C/C(=O)NO)cc1 [Panobinostat] (100 nM)
Result: criterion met

###

Listed compounds paired with reported normalised viability
System: CAL-148
assay: normalised viability (% of control), CellTiter-Blue; higher = more viable cells (about 100 = DMSO control)
experimentalConditions: 10 nM; incubation time: 72 h
Give the value in % but do not write % after it.

{"chemicalStructure": "O=C(/C=C/c1cccc(S(=O)(=O)Nc2ccccc2)c1)NO", "unitAnnotation": "%", "normalised viability": 91}
{"chemicalStructure": "COc1cc(OC2CCN(C)CC2)ccc1Nc1ncc2c(n1)n(C1CCCC1)c(=O)n2C", "unitAnnotation": "%", "normalised viability": 105}
{"chemicalStructure": "CC(C)C[C@@H](C(=O)N[C@H](C(=O)OC1CCCC1)c1ccccc1)[C@H](O)C(=O)NO", "unitAnnotation": "%", "normalised viability": 91.2}
{"chemicalStructure": "COC(=O)c1ccc2c(c1)NC(=O)/C2=C(\\Nc1ccc(N(C)C(=O)CN2CCN(C)CC2)cc1)c1ccccc1", "unitAnnotation": "%", "normalised viability": 100}
{"chemicalStructure": "CN(C)CCOc1ccc(/C(=C(/CCCl)c2ccccc2)c2ccccc2)cc1", "unitAnnotation": "%", "normalised viability": 108}
{"chemicalStructure": "CNC(=O)c1cc(Oc2ccc(NC(=O)Nc3ccc(Cl)c(C(F)(F)F)c3)c(F)c2)ccn1", "unitAnnotation": "%", "normalised viability": 93.6}
{"chemicalStructure": "Nc1cc(C(F)(F)F)c(-c2cc(N3CCOCC3)nc(N3CCOCC3)n2)cn1", "unitAnnotation": "%", "normalised viability": 94.9}
{"chemicalStructure": "c1ccc2c(CCNc3ccc(Nc4ccncc4)cc3)c[nH]c2c1", "unitAnnotation": "%", "normalised viability": 83.5}

Proceeding to the next compound to report its normalised viability.
Q: // returns reported normalised viability for input C=C1C[C@@H]2[C@H](CC[C@]3(C)C(=O)CC[C@@H]23)[C@@]2(C)C=CC(=O)C=C12
Result: 95.4

###

Listed compounds paired with reported normalised response
Tested on: MFM-223
assay: normalised response (% of control), CellTox Green; higher = less cell death (100 = DMSO, 0 = benzethonium chloride kill control)
experimentalConditions: incubation time: 72 h
Give the value in % but do not write % after it.

{"compound": "CNC(=O)c1ccc(N2C(=S)N(c3ccc(C#N)c(C(F)(F)F)c3)C(=O)C23CCC3)cc1F [RD162] (100 nM)", "normalised response, %": 103}
{"compound": "CC(C)C[C@@H](C(=O)N[C@H](C(=O)OC1CCCC1)c1ccccc1)[C@H](O)C(=O)NO [Tosedostat] (100 nM)", "normalised response, %": 84}
{"compound": "COc1cc(O)c2c(c1)/C=C/C[C@H](O)[C@H](O)C(=O)/C=C\\C[C@H](C)OC2=O [(5Z)-7-Oxozeaenol] (100 nM)", "normalised response, %": 105}
{"compound": "CNC(=O)c1cccc(-c2ccc3c(N4CCOC[C@@H]4C)nc(N4CCOC[C@@H]4C)nc3n2)c1 [AZD2014] (10000 nM)", "normalised response, %": 93.4}
{"compound": "COc1cc2c(NC3CCN(C(C)C)CC3)nc(N3CCC(F)(F)CC3)nc2cc1OCCCN1CCCC1 [UNC0642] (100 nM)", "normalised response, %": 101}

Proceeding to the next compound to report its normalised response.
Q: // returns reported normalised response for input COc1cc(O)c2c(c1)/C=C/C[C@H](O)[C@H](O)C(=O)/C=C\C[C@H](C)OC2=O [(5Z)-7-Oxozeaenol] (10000 nM)
Result: 67.3

###

Test system: MFM-223
assay: normalised viability (% of control), CellTiter-Blue; higher = more viable cells (about 100 = DMSO control)
experimentalConditions: 10000 nM; incubation time: 72 h
Listed compounds paired with reported normalised viability
Give the value in % but do not write % after it.

{"compound": "CN(C)c1nc(N(C)C)nc(N(C)C)n1 [Altretamine]", "parameter": "normalised viability", "recordedResult": 89.6}
{"compound": "CN(C)CCOc1ccc(/C(=C(/CCCl)c2ccccc2)c2ccccc2)cc1 [Toremifene]", "parameter": "normalised viability", "recordedResult": 71.8}

Proceeding to the next compound to report its normalised viability.
Q: // returns reported normalised viability for input Cc1ccc(NC(=O)c2ccc(CN3CCN(C)CC3)cc2)cc1Nc1nc(-c2cccnc2)cs1 [Masitinib]
Result: 92.5

###

Test system: HCC1599
assay: normalised response (% of control), CellTox Green; higher = less cell death (100 = DMSO, 0 = benzethonium chloride kill control)
experimentalConditions: incubation time: 72 h
parameter: normalised response (%)
Give the value in % but do not write % after it.

Solved entries:
{"compound": "COCC[n+]1c2c(n(Cc3cnccn3)c1C)C(=O)c1ccccc1C2=O [YM155] (10000 nM)", "normalised response (%)": 55.7}
{"compound": "CCc1c2c(nc3ccc(OC(=O)N4CCC(N5CCCCC5)CC4)cc13)-c1cc3c(c(=O)n1C2)COC(=O)[C@]3(O)CC [Irinotecan] (10000 nM)", "normalised response (%)": 87}
{"compound": "CNC(=O)c1cc(Oc2ccc(NC(=O)Nc3ccc(Cl)c(C(F)(F)F)c3)c(F)c2)ccn1 [Regorafenib] (10000 nM)", "normalised response (%)": 106}

Proceeding to the next compound to report its normalised response.
Q: // returns reported normalised response for input CC(C)C[C@@H](C(=O)N[C@H](C(=O)OC1CCCC1)c1ccccc1)[C@H](O)C(=O)NO [Tosedostat] (10000 nM)
Result: 95.4

###

Tested on: Hs578T
experimentalConditions: 72 h
Under this convention, yes (1) denotes EC50, CellTiter-Glo strictly below 0.04 µM and no (0) denotes EC50, CellTiter-Glo at or above 0.04 µM.

Examples with answers:
{"chemicalStructure": "CNC(=O)c1cc(Oc2ccc(NC(=O)Nc3ccc(Cl)c(C(F)(F)F)c3)c(F)c2)ccn1", "categoryLabel": "no (0)"}
{"chemicalStructure": "CO[C@H]1C[C@@H]2CC[C@@H](C)[C@@](O)(O2)C(=O)C(=O)N2CCCC[C@H]2C(=O)O[C@H]([C@H](C)C[C@@H]2CC[C@@H](OP(C)(C)=O)[C@H](OC)C2)CC(=O)[C@H](C)/C=C(\\C)[C@@H](O)[C@@H](OC)C(=O)[C@H](C)C[C@H](C)/C=C/C=C/C=C/1C", "categoryLabel": "yes (1)"}
{"chemicalStructure": "COc1cc(O)c2c(c1)/C=C/C[C@H](O)[C@H](O)C(=O)/C=C\\C[C@H](C)OC2=O", "categoryLabel": "no (0)"}
{"chemicalStructure": "Cc1cc(Nc2cc(CN3CCOCC3)c3nc(C)c(Cc4ccc(Cl)cc4F)n3n2)n[nH]1", "categoryLabel": "no (0)"}
{"chemicalStructure": "O=C(/C=C/c1cccc(S(=O)(=O)Nc2ccccc2)c1)NO", "categoryLabel": "no (0)"}

Pending compound:
Q: Report whether reported EC50, CellTiter-Glo is lower than 0.04 µM (strictly) for Cc1[nH]c2ccccc2c1CCNCc1ccc(/C=C/C(=O)NO)cc1
Result: no (0)
